This collection of values is drawn from patent US20210380675A1.

binders and their reported koff
Target: T1, human IL-36α(R12), truncated (human, UniProt Q9UHA7 6-158)
T1 construct: Untagged after removal of the His-SUMO tag; also called hIL-36alpha
T1 chain: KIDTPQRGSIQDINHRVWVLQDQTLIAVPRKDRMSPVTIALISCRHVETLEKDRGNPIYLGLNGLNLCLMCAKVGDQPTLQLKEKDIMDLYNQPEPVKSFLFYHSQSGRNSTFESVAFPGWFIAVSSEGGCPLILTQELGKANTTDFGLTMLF
Assay: SPR, Biacore, 1:1 Langmuir fit; heads of c3 and c4 printed swapped
Your answer is read as s⁻¹, so omit the unit and give the number.

// worked examples, koff included
Query: Looking for the measured koff of 144D464A LV10re HV10b (antibody, V domains shown, Humanized) VH: QVQLVQSGAEVKKPGASVKVSCKASGFNIKDTYIHWVRQAPGQGLEWIGRIDPAIGTTRYDPKFQGRATITTDTSTSTVYLEFSSLRSEDTAVYYCARLHYFGNNFFFDYWGQGTLVTVSS VL: QAVVTQEPSLTVSPGGTVTLTCRSSSGAVTTSNYANWVQEKPGQLFAGLIGGTNDRAPGVPARFSGSLLGGKAALTLSGAQPEDEAIYFCALWFSNHWVFGGGTKLTVL , can you help?
Reply: 0.000429

Query: Report koff for 144D464A LV11re HV10b (antibody, V domains shown, Humanized) VH: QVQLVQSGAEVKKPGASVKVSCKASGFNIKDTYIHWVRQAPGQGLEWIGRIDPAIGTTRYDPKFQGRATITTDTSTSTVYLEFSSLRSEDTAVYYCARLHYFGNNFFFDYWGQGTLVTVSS VL: QAVVTQEPSLTVSPGGTVTLTCRSSSGAVTTSNYANWVQEKPGQLFAGLIGGTNDRAPGVPARFSGSLLGGKAALTISGAQPEDEAIYFCALWFSNHWVFGGGTKLTVL please.
Reply: 0.000422

Query: I'd like to know its koff. The binder in question is 144D464A LV9are HV10b (antibody, V domains shown, Humanized) VH: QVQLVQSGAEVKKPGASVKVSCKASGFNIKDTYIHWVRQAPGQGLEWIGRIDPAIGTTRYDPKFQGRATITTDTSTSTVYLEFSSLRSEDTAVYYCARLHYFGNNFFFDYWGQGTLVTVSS VL: QAVVTQEPSLTVSPGGTVTLTCRSSSGAVTTSNYANWVQEKPGQLFAGLIGGTNDRAPGVPARFSGSLLGGKAALTLSGAQPEDEADYFCALWFSNHWVFGGGTKLTVL
Reply: 0.000445

Query: Given the entry 144L249B LV9 HV10c (antibody, V domains shown, Humanized) VH: QVQLVQSGAEVKKPGASVKVSCKASGFNIKDTYIYWVRQAPGQGLEWIGRIDPAIGTTRYDPKFQGKATLTADTSTNTAYLELSSLRSEDTAVYYCARYDYSGSSFYFDYWGQGTLVTVSS VL: QAVVTQEPSLTVSPGGTVTLTCRSSTGAVTTSNYANWVQEKPGQLFTGLIGGTNDRAPGVPARFSGSLLGGKAALTLSGAQPEDEADYFCALWYSNHLVFGGGTKLTVL , report its measured koff.
Reply: 0.000843

Query: I'd like to know its koff. The binder in question is 144D464A (antibody, V domains shown, Mouse monoclonal from hybridoma; mouse IgG heavy and lambda light chain; also called mouse antibody 144D464A) VH: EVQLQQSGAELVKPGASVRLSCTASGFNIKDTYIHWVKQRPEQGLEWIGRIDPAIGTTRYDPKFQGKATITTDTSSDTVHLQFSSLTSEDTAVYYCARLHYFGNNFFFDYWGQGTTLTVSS VL: QAVVTQESALTTSPGEAVTLTCRSSSGAVTTSNYANWVQEKPDHLFAGLIGGTNDRAPGVPARFSGSLIGDKAALTITGAQTEDEAIYFCALWFSNHWVFGGGTKLTVL
Reply: 0.000362

Query: Requested field: koff. Item: 144L249B (antibody, V domains shown, Mouse monoclonal from hybridoma; mouse IgG heavy and lambda light chain; also called mouse antibody 144L249B) VH: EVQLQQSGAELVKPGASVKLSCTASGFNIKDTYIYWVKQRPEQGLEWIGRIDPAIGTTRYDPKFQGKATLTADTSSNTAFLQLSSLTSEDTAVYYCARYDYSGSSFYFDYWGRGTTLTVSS VL: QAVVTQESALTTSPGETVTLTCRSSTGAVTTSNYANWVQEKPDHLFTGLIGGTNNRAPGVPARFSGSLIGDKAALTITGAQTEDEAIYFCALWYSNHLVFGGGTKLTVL
Reply: 0.000785

Query: Value lookup for koff; key = 144D464A LV7a HV10b (antibody, V domains shown, Humanized; also called humanized 144D464A antibody LV7a HV10b) VH: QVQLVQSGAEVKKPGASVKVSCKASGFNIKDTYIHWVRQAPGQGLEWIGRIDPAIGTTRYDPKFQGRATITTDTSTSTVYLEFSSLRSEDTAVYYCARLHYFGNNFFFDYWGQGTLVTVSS VL: QAVVTQEPSLTVSPGGTVTLTCRSSSGAVTTSNYANWVQQKPGQAFAGLIGGTNDRAPGVPARFSGSLLGGKAALTISGAQPEDEADYFCALWFSNHWVFGGGTKLTVL
Reply: 0.000456

Query: Which koff is listed for 144L249B LV7a HV11 (antibody, V domains shown, Humanized) VH: QVQLVQSGAEVKKPGASVKVSCKASGFNIKDTYIYWVRQAPGQGLEWIGRIDPAIGTTRYDPKFQGKATLTTDTSTNTAYLELSSLRSEDTAVYYCARYDYSGSSFYFDYWGQGTLVTVSS VL: QAVVTQEPSLTVSPGGTVTLTCRSSTGAVTTSNYANWVQQKPGQAFTGLIGGTNDRAPGVPARFSGSLLGGKAALTISGAQPEDEADYFCALWYSNHLVFGGGTKLTVL ?
Reply: 0.00103

New cases:
Query: Please give the measured koff for this binder: 144L249B LV9 HV10b (antibody, V domains shown, Humanized) VH: QVQLVQSGAEVKKPGASVKVSCKASGFNIKDTYIYWVRQAPGQGLEWIGRIDPAIGTTRYDPKFQGKATLTTDTSTSTAYLELSSLRSEDTAVYYCARYDYSGSSFYFDYWGQGTLVTVSS VL: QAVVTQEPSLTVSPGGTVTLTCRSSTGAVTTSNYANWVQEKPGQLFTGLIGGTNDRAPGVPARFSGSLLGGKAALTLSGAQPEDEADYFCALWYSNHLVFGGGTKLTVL
Reply: 0.000989

Query: Look up koff: 144L249B LV9 HV11 (antibody, V domains shown, Humanized) VH: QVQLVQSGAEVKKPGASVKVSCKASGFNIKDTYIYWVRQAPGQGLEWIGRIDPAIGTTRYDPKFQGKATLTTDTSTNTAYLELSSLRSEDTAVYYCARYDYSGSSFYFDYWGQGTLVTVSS VL: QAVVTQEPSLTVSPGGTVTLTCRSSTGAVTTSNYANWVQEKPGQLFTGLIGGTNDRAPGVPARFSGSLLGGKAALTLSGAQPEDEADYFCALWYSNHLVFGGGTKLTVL
Reply: 0.00102
